test system: Staphylococcus aureus; test: In vitro antibacterial activity against Staphylococcus aureus 853 strain; assay type: functional

| compound | unitOfMeasure | MIC |
| --- | --- | --- |
| C[C@@H](O)[C@H]1C(=O)N2C(C(=O)O)=C3[C@H](CCC[C@@H]3N(C)C)[C@H]12 | µg/mL | 0.25 |
| CO[C@H]1CCC[C@H]2C1=C(C(=O)[O-])N1C(=O)[C@H]([C@@H](C)O)[C@@H]21.[Na+] [SANFETRINEM SODIUM] | µg/mL | 0.25 |
| C[C@@H](O)[C@H]1C(=O)N2C(C(=O)O)=C3[C@@H](N)CCC[C@@H]3[C@H]12 | µg/mL | 0.25 |
| C[C@@H](O)[C@H]1C(=O)N2C(C(=O)O)=C3[C@@H](NC4CCCC4)CCC[C@@H]3[C@H]12 | µg/mL | 4 |
| CN[C@H]1CCC[C@H]2C1=C(C(=O)O)N1C(=O)[C@H]([C@@H](C)O)[C@@H]21 | µg/mL | 0.5 |
